B1: TPR t1 (parent)
chain: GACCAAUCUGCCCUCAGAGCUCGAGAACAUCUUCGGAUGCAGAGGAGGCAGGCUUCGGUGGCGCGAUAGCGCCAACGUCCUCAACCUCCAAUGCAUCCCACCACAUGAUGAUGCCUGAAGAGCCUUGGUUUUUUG

Variants of: B1
experiment description: polymerase ribozyme fitness, log enrichment relative to wild type (log ratio); higher = more active; in vitro selection for triplet polymerase activity
endpoint: polymerase ribozyme fitness (log ratio)

Solved entries (count: 3):
• C8A C80U A105C U112G G120C = -3.09
• C70U G135U = -1.13
• A41U C70A U78G C123U = -3.32

Incoming: What value of polymerase ribozyme fitness (log ratio) has been recorded for this entry: A18U G39U C104U U112A
Outgoing: -1.88

Incoming: And what about the variant G44C C88U ?
Outgoing: -0.458

Incoming: What do you have for A18C A37C U112C ?
Outgoing: -1.3

Incoming: Subsequent entry: C11U C12G
Outgoing: -0.553

Incoming: Follow-up entry: C97U G110C
Outgoing: -3.29

Incoming: Do the same for C22A A43C U78C A83C C86U G113A please
Outgoing: -5.47
